target: T1, recombinant human PD-1 expressed with a C-terminal myc-myc-hexahistidine tag (human); test: SPR (Biacore), mAb captured, hPD-1-MMH injected, 25 C;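 further: rate constants obtained by fitting sensorgrams to a 1:1 binding model, KD derived as kd/ka and half-life as ln2/(60·kd) in minutes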
T1 construct: also called hPD-1-MMH; human PD-1-MMH
T1 sequence (chain, as listed by the source limits assumed): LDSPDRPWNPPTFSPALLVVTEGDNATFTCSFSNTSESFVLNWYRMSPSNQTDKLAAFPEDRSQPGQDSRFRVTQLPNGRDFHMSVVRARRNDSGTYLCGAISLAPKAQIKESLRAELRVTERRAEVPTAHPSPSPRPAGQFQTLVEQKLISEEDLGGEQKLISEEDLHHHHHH
Quantity Name: t½ (min)
Express your answer in min, writing the number without its unit.

Task: Can you look up the measured t½ of H1M7800N (antibody, mouse IgG1, V domains shown, Human variable domains, mouse IgG1 Fc) VH: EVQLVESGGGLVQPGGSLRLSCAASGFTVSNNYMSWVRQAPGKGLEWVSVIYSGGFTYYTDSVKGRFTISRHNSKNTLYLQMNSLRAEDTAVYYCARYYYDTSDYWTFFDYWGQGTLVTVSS VL: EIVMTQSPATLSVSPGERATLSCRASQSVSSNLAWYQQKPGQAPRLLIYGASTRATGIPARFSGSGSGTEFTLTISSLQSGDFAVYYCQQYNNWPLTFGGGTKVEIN for me?
Result: 1.2

Task: Can you look up the measured t½ of H2aM7795N (antibody, mouse IgG2a, V domains shown, Human variable domains, mouse IgG2a Fc; also called H2M7795N) VH: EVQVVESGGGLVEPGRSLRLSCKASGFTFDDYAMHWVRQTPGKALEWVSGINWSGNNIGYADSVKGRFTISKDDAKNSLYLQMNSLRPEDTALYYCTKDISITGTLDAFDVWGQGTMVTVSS VL: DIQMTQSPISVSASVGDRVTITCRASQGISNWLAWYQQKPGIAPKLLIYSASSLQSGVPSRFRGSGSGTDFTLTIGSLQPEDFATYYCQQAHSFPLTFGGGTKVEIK for me?
Result: 10

Task: Can you look up the measured t½ of H4H7795N2 (antibody, human IgG4 S228P, kappa, V domains shown) VH: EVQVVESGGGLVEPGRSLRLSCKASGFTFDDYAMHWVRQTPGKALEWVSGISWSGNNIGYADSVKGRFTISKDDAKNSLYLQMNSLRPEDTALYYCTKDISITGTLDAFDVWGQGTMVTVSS VL: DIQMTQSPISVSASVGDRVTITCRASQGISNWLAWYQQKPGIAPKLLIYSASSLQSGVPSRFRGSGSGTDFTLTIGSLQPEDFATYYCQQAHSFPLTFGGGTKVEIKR for me?
Result: 8

Task: Can you look up the measured t½ of H2aM7791N (antibody, mouse IgG2a, V domains shown, Human variable domains, mouse IgG2a Fc; also called H2M7791N) VH: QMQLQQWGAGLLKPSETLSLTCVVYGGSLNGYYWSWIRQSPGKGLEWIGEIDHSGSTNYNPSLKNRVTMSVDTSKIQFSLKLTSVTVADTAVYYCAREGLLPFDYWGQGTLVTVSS VL: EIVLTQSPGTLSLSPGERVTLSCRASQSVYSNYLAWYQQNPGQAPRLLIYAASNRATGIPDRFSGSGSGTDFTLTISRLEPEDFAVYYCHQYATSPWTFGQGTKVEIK for me?
Result: 16

Task: Can you look up the measured t½ of H1M7799N (antibody, mouse IgG1, V domains shown, Human variable domains, mouse IgG1 Fc) VH: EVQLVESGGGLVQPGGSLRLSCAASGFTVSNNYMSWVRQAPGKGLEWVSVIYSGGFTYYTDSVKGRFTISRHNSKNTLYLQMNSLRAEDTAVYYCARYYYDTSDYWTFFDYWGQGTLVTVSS VL: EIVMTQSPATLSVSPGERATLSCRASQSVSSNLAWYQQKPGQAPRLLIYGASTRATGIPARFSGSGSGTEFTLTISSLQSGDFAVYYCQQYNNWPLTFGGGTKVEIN for me?
Result: 0.9

Task: Can you look up the measured t½ of H1M7789N (antibody, mouse IgG1, V domains shown, Human variable domains, mouse IgG1 Fc (H1M prefix)) VH: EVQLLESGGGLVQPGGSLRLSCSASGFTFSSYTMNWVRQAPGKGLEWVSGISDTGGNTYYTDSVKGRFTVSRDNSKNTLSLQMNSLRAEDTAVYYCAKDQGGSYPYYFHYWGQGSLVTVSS VL: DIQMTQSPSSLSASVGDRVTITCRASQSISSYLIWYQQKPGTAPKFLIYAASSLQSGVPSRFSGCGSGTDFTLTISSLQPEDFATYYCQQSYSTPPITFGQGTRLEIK for me?
Result: 218

More entries:
Task: Can you look up the measured t½ of H2aM7780N (antibody, mouse IgG2a, V domains shown, also called H2M7780N) VH: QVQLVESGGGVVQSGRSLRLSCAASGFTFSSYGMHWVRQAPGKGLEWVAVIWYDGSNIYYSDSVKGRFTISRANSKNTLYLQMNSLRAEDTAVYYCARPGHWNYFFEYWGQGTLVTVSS VL: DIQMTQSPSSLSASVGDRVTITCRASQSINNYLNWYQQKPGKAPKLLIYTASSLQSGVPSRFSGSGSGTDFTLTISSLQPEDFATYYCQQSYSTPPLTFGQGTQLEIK for me?
Result: 32

Task: Can you look up the measured t½ of H4H7798N (antibody, human IgG4 S228P, kappa, V domains shown) VH: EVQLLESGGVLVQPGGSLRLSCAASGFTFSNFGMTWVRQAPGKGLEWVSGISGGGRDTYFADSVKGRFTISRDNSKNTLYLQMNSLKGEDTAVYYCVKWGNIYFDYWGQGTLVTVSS VL: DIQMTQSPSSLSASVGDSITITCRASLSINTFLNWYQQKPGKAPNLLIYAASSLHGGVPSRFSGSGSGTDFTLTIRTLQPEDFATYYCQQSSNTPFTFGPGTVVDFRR for me?
Result: 26

Task: Can you look up the measured t½ of H2aM7798N (antibody, mouse IgG2a, V domains shown, Human variable domains, mouse IgG2a Fc; also called H2M7798N) VH: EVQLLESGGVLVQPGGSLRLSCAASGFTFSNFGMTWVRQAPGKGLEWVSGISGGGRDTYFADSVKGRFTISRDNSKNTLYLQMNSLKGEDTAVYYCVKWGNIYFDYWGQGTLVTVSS VL: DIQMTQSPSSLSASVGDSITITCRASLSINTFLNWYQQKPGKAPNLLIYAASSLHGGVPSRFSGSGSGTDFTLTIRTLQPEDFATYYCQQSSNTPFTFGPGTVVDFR for me?
Result: 38

Task: Can you look up the measured t½ of H2aM7796N (antibody, mouse IgG2a, V domains shown, Human variable domains, mouse IgG2a Fc; also called H2M7796N) VH: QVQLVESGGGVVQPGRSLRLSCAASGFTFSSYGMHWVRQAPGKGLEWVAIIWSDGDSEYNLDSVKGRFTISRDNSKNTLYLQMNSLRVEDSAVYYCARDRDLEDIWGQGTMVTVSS VL: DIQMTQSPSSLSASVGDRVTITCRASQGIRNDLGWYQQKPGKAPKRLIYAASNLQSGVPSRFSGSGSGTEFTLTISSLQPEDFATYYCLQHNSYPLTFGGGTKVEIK for me?
Result: 6

Value source: patent US20150203579A1
